Origin of measurements: ChEMBL document CHEMBL6121056

- Test system: AML12
- Assay Name: Protection against acetaminophen-induced acute liver injury in AML12 cells at 10 uM incubated for 12 hrs by MTT assay relative to control
- Type: functional, Mus musculus
Entries and their Activity values follow.
State the answer as a number, implicitly in %.

Worked set:
cpd_smiles=CC[C@H](/C=C/C=C/C=C(\C)[C@@H]1Oc2ccn(OC)c(=O)c2[C@@H](O)[C@H]1C)COC=O experimental_endpoint=Activity endpoint_value=21
cpd_smiles=COn1ccc2c(c1=O)[C@@H](O)[C@@H](C)[C@H](/C(C)=C/C=C/C=C/[C@H](C)CC(=O)O)O2 experimental_endpoint=Activity endpoint_value=50
cpd_smiles=CC[C@H](/C=C/C=C/C=C(\C)[C@@H]1Oc2ccn(OC)c(=O)c2[C@@H](O)[C@H]1C)C(=O)O experimental_endpoint=Activity endpoint_value=-14
cpd_smiles=CC[C@H](/C=C/C=C/C=C(\C)[C@@H]1Oc2cc[nH]c(=O)c2[C@@H](OC)[C@H]1C)CO experimental_endpoint=Activity endpoint_value=53
cpd_smiles=CC[C@@H](C)/C=C/C=C/C=C(\C)[C@@H]1Oc2cc[nH]c(=O)c2[C@@H](O)[C@H]1C experimental_endpoint=Activity endpoint_value=-6.5
cpd_smiles=CC[C@@H](/C=C/C=C/C=C(\C)[C@@H]1Oc2cc[nH]c(=O)c2[C@@H](OC)[C@H]1C)C(=O)O experimental_endpoint=Activity endpoint_value=-43

**Query** For the compound shown here, `CO[C@@H]1c2c(cc[nH]c2=O)O[C@@H](/C(C)=C/C=C/C=C/[C@H](CO)CCO)[C@@H]1C` , give the reported Activity.
**Result** 59

**Query** For the compound shown here, `CC[C@@H](C)/C=C/C=C/C=C(\C)[C@@H]1Oc2c(-c3ccc(O)cc3)c[nH]c(=O)c2C(=O)[C@H]1C` , give the reported Activity.
**Result** -50

---

- Tested on: AML12
- Assay Name: Protection against acetaminophen-induced acute liver injury in AML12 cells at 10 uM incubated for 12 hrs by MTT assay relative to control
- Format: functional, Mus musculus
Entries and their Activity values follow.
State the answer as a number, implicitly in %.

Worked set:
molecule=CC[C@@H](C)/C=C/C=C/C=C(\C)[C@@H]1Oc2cc[nH]c(=O)c2[C@@H](OC)[C@H]1C endpoint_value=192
molecule=CC[C@H](/C=C/C=C/C=C(\C)[C@@H]1Oc2cc[nH]c(=O)c2[C@@H](O)[C@H]1C)CO endpoint_value=100
molecule=CC[C@H](/C=C/C=C/C=C(\C)[C@@H]1Oc2cc[nH]c(=O)c2[C@@H](O)[C@H]1C)C(=O)O endpoint_value=56

**Query** For the molecule shown here, `CO[C@@H]1c2c(cc[nH]c2=O)O[C@@H](/C(C)=C/C=C/C=C/[C@H](C)CC(=O)O)[C@@H]1C` , give the reported Activity.
**Result** 18

**Query** For the molecule shown here, `CC[C@H](/C=C/C=C/C=C(\C)[C@@H]1Oc2cc[nH]c(=O)c2[C@@H](OC)[C@H]1C)COC=O` , give the reported Activity.
**Result** -32

**Query** For the molecule shown here, `CC[C@H](/C=C/C=C/C=C(\C)[C@@H]1Oc2ccn(OC)c(=O)c2[C@@H](O)[C@H]1C)CO` , give the reported Activity.
**Result** 64

**Query** For the molecule shown here, C\C(=C/C=C/C=C/C(C)CC(=O)O)[C@@H]1Oc2cc[nH]c(=O)c2[C@@H](O)C1C (stereo partly drawn) , give the reported Activity.
**Result** 26

**Query** For the molecule shown here, `CC(=O)N[C@@H](CS)C(=O)O` , give the reported Activity.
**Result** 165
